Molecular target: PCSK9 (Homo sapiens)
Sequence (Q8NBP7 153-692): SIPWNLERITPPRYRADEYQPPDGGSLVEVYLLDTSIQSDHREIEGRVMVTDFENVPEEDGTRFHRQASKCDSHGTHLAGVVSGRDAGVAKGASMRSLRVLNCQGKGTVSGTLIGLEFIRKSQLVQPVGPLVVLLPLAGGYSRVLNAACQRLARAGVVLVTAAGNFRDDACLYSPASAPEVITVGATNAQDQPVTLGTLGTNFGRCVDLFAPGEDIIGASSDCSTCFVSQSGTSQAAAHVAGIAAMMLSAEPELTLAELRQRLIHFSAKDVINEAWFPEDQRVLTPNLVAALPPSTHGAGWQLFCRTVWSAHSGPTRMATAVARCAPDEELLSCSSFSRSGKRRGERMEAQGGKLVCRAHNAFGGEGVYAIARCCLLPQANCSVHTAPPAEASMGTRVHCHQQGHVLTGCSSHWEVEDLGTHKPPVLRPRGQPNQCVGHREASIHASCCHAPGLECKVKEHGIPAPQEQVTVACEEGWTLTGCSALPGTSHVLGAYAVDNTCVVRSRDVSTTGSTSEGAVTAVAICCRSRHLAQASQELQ
Sequence (Q8NBP7 31-152 partner limits assumed): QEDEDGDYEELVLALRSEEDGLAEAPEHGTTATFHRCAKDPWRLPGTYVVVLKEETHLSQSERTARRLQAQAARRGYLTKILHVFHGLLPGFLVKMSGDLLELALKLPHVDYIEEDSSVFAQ
Assay: PCSK9-LDLR in vitro Binding Assay (ELISA)
Conditions: Concentration 100 μM; 100 µM
TEST READOUT: % Inhibition PCSK9 (%)

Cc1ccc(-c2nc(CC3COC(C)(C(=O)NCC4CCOCC4)OC3)c(C)o2)cc1 (stereo not drawn) [Example 64]	49
Cc1oc(-c2ccccc2)nc1CCC1COC(C)(C(=O)NO)OC1 (stereo not drawn) [Example 36]	24
Cc1ccc(-c2nc(CC3COC(C)(C(=O)NCC4CCOCC4)OC3)c(C)o2)cc1 (stereo not drawn) [Example 63]	51

a: Cc1oc(-c2ccncc2)nc1CC1COC(C)(C(=O)NCC2CCOCC2)OC1 (stereo not drawn) [Example 84]
b: Cc1oc(-c2ccncc2)nc1CC1COC(C)(C(=O)NO)OC1 (stereo not drawn) [Example 80]
c: Cc1oc(-c2ccncc2)nc1CC1COC(C)(C(=O)NCC(=O)NCC2CCOCC2)OC1 (stereo not drawn) [Example 88]
Sort low-to-high on % Inhibition PCSK9, please. The response must list the labels following the requested ordering.
c, b, a
(c: 15%, b: 34%, a: 65%)
